# Test system: NIH3T3
# Assay Overview: qHTS assay to identify novel small-molecules to repurpose for Merkel cell carcinoma treatment (AID 1296009); also: nearly all actives have a fitted effect of over 60% in size
# Reported Conditions: MCC and control cell lines, CellTiter-Glo viability, 72 h; series mostly up to 44.8 µM
Results filed as inconclusive are left out. Active and inactive are the calls of the source. Calls follow the shape of the dose curve; as a rule, active = well fitted inhibition curve with a large enough effect; inconclusive = small, poorly fitted or top-dose-only effect; inactive = flat fitted curve, though single readings scatter.
Labels: active, inactive

- Molecule: "C[C@H]1COC2=C1C(=O)C(=O)c1c2ccc2c1CCCC2(C)C"
  Cat: "inactive"
- Molecule: "Cc1cc(NC(=O)Nc2ccc(N(C)C)cc2)c2cc(F)cc(F)c2n1"
  Cat: "inactive"
- Molecule: "COc1ccnc(CS(=O)c2nc3ccc(OC(F)F)cc3[nH]2)c1OC (centres undefined)"
  Cat: "inactive"
- Molecule: "COC(=O)N1CCN(Cc2cccc(NC(=O)Nc3ccc(C)nc3)c2F)CC1"
  Cat: "inactive"
- Molecule: "c1ccc(CNc2nc(N3CCOc4ccccc43)nc3c2CCCC3)cc1"
  Cat: "inactive"
- Molecule: "CCC[C@@H](NC(=O)[C@@H]1[C@H]2CCC[C@@H]2CN1C(=O)[C@@H](NC(=O)[C@@H](NC(=O)c1cnccn1)C1CCCCC1)C(C)(C)C)C(=O)C(=O)NC1CC1"
  Cat: "inactive"
- Molecule: "COc1ccc(-c2cc(=O)c3c(O)cc(O[C@@H]4O[C@H](CO[C@@H]5O[C@@H](C)[C@H](O)[C@@H](O)[C@@H]5O)[C@@H](O)[C@H](O)[C@@H]4O)cc3o2)cc1O"
  Cat: "inactive"
- Molecule: "Nc1[nH]nc2nnc(-c3c(-c4ccccc4)nn4ccccc34)cc12"
  Cat: "inactive"
- Molecule: "CCN1CCC(n2cc(CNc3cc(Cl)c4ncc(C#N)c(Nc5ccc(F)c(Cl)c5)c4c3)nn2)CC1"
  Cat: "inactive"
- Molecule: "CCC(c1ccc(O)cc1)C(CC)c1ccc(O)cc1 (centres undefined)"
  Cat: "inactive"
- Molecule: "CC(=O)N1CCN(c2ccc(OCc3nn(C)c(C)c3-c3cccc4c(CCCOc5cc(C)c(Cl)c(C)c5)c(C(=O)O)n(Cc5cccnc5)c34)cc2)CC1"
  Cat: "inactive"
- Molecule: "C[C@@]1(c2cc(-c3cncnc3)c(F)cc2F)CCSC(N)=N1"
  Cat: "inactive"
- Molecule: "CCCCCCCCCCCCCCCC(=O)O[C@H]1[C@@H](O)[C@@H](O)[C@@H]([C@H](NC(=O)[C@@H]2C[C@@H](CCC)CN2C)[C@H](C)Cl)O[C@@H]1SC"
  Cat: "inactive"
- Molecule: "Cc1nc2c([nH]1)CCN(C(=O)c1ccc(NC(=O)c3ccccc3-c3ccccc3)cc1)c1ccccc1-2"
  Cat: "inactive"
- Molecule: "C[C@@]1(C(=O)Nc2ccc(F)nc2)CCCN1c1nc(Nc2cc(C3CC3)[nH]n2)c2cccn2n1"
  Cat: "active"
- Molecule: "CCC(=O)NCC[C@@H]1CCc2ccc3c(c21)CCO3"
  Cat: "inactive"
- Molecule: "CC(C)CN(C[C@@H](O)[C@H](Cc1ccccc1)NC(=O)O[C@H]1CO[C@H]2OCC[C@H]21)S(=O)(=O)c1ccc(N)cc1"
  Cat: "inactive"
- Molecule: "CC(NCCc1ccc(O)cc1)C(O)c1ccc(O)cc1 (centres undefined)"
  Cat: "inactive"
- Molecule: "CN[C@@H]1[C@@H](O)[C@@H](O[C@@H]2[C@@H](O)[C@H](O[C@H]3O[C@H](CN)[C@@H](O)[C@H](O)[C@@H]3O)[C@@H](N)C[C@@H]2NC(=O)[C@@H](O)CN)OC[C@]1(C)O"
  Cat: "inactive"
- Molecule: "CCOC(=O)N1c2ccc(C(F)(F)F)cc2[C@@H](N(Cc2cc(C(F)(F)F)cc(C(F)(F)F)c2)C(=O)OC)C[C@H]1CC"
  Cat: "inactive"
- Molecule: "O=C1C(c2c(O)[nH]c3ccccc23)=Nc2ccccc21"
  Cat: "inactive"
- Molecule: "CCOC(=O)[C@H](CCc1ccccc1)N[C@@H](C)C(=O)N1CCCC1C(=O)O (some centres undefined)"
  Cat: "inactive"
- Molecule: "CCCCN(CCCC)CC(O)c1cc(Cl)cc2c1-c1ccc(Cl)cc1C2=Cc1ccc(Cl)cc1 (centres undefined)"
  Cat: "inactive"
- Molecule: "COc1ccc(CCC(=O)Nc2nc3ccc(Cl)cc3s2)cc1OC"
  Cat: "inactive"
- Molecule: "CN1[C@H]2CC[C@H]1CC(OC(=O)c1c[nH]c3ccccc13)C2 (some centres undefined)"
  Cat: "inactive"
- Molecule: "C[C@]12CC[C@@H]3c4ccc(O)cc4CC[C@H]3[C@H]1[C@@H](O)[C@@H](O)[C@H]2O"
  Cat: "inactive"
- Molecule: "CC[C@H](C)n1cc(C)c2c(C(=O)NCc3c(C)cc(C)[nH]c3=O)cc(-c3ccc(N4CCNCC4)nc3)cc21"
  Cat: "inactive"
- Molecule: "CCOC(=O)N1CCN([N+]([O-])=NOc2cc(ON=[N+]([O-])N3CCN(C(=O)OCC)CC3)c([N+](=O)[O-])cc2[N+](=O)[O-])CC1"
  Cat: "inactive"
- Molecule: "Cc1ccc2c(=O)c3cccc(CC(=O)O)c3oc2c1C"
  Cat: "inactive"
- Molecule: "Cn1c(=O)c(-c2c(Cl)cccc2Cl)cc2cnc(Nc3cccc(C(=O)O)c3)nc21"
  Cat: "inactive"
- Molecule: "CN(C)CCOc1ccc(C(=C(CCCl)c2ccccc2)c2ccccc2)cc1"
  Cat: "inactive"
- Molecule: "COc1cccc(OC)c1-c1cc(C(=O)NC2(C(=O)O)C3CC4CC(C3)CC2C4)nn1-c1ccnc2cc(Cl)ccc12 (centres undefined)"
  Cat: "inactive"
- Molecule: "C[C@@H](O)[C@H]1C(=O)N2C(C(=O)OCOC(=O)C(C)(C)C)=C(SC3CN(C4=NCCS4)C3)[C@H](C)[C@H]12"
  Cat: "inactive"
- Molecule: "NC1(C(=O)N[C@@H](CCO)c2ccc(Cl)cc2)CCN(c2ncnc3[nH]ccc23)CC1"
  Cat: "inactive"
